condition_parameters: buffer, pH 7.4, 1 h, 100 µM
reported_metric: Kinetic_solubility (µM)

CN(C)C(=O)Nc1ccc2nnc(C(=O)N3C[C@H]4C[C@@H](c5ccccc5C(F)(F)F)C[C@H]4C3)n2c1 17

[A] N#Cc1ccc2nnc(C(=O)N3CCC(c4c(F)cccc4C(F)(F)F)CC3)n2c1
[B] O=C(c1cn2ccccc2n1)N1CCC(c2ccccc2C(F)(F)F)CC1
Ask: Which entry shows the lesser value of Kinetic_solubility here, A or B ? The response must carry the label of the picked entry.
Result: A

* * *

experiment_summary: Microsomal stability in ICR/CD1 mouse liver microsomes assessed as parent compound remaining at 10 uM after 30 mins in presence of NADPH-regenerating system by LC-MS analysis
reported_metric: remaining at 0.5 h, 10 µM (%)

O=C(c1cn2ccccc2n1)N1CCC(c2ccccc2C(F)(F)F)CC1 0

[1] O=C(c1nc2ccccc2o1)N1CCC(c2ccccc2C(F)(F)F)CC1
[2] Cn1nc(C(=O)N2CCC(c3ccccc3C(F)(F)F)CC2)c2ccccc21
Ask: Lab note: check whether 1 or 2 shows the higher recorded remaining at 0.5 h, 10 µM. The response must carry the label of the picked entry.
Result: 2
